Target: Human FXRα Ligand Binding Domain (Homo sapiens)
Construct: polyhistidine (pRSET-A vector leader) (N); made in house; host or cells: E. coli BL21 (DE3), pRSET-A vector
Sequence (Q96RI1 251-486): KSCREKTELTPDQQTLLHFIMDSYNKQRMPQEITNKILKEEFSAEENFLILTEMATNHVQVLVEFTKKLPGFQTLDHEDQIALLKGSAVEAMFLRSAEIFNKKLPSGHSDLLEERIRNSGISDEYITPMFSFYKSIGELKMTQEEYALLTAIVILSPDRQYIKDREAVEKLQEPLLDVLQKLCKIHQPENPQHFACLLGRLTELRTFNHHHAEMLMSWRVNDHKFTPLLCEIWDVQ
Test: FXR Cofactor Binding Assay (time resolved fluorescence, SRC-1 peptide recruitment)
Type: biochemical
Conditions: class symbols; read-out: Activity (pEC50) (converted)
observation_type: EC50

Here is how some compounds turned out for EC50.
> print(dat)
                                   compound                           subject.of.test  observation.type      result.value
1  CC(C)c1onc(-c2c(Cl)cccc2Cl)c1COc1ccc(-c2ccc3c(C(=O)O)cc(=O)oc3c2)cc1  Human FXRα Ligand Binding Domain (Homo sapiens)              EC50    102 to 1000 nM
2  CC(C)c1onc(-c2c(Cl)cccc2Cl)c1COc1ccc(-c2ccc3sc(C(=O)O)cc3n2)cc1  Human FXRα Ligand Binding Domain (Homo sapiens)              EC50    102 to 1000 nM
3  CC(C)c1onc(-c2c(Cl)cccc2Cl)c1COc1ccc(-c2csc3ccc(C(=O)O)cc23)cc1  Human FXRα Ligand Binding Domain (Homo sapiens)              EC50  1020 to 10000 nM
4  CC(C)c1onc(-c2c(Cl)cccc2Cl)c1COc1ccc(-c2ccc3c(c2)CCC3(O)C(=O)O)cc1 (stereo not drawn)  Human FXRα Ligand Binding Domain (Homo sapiens)              EC50    102 to 1000 nM

Parameter requested: EC50. Apply to each item below.
1. CC(C)c1onc(-c2c(Cl)cccc2Cl)c1COc1ccc(-c2ccc3c(c2)CC(C(=O)O)C3)cc1 (stereo not drawn)
2. CC(C)c1onc(-c2c(Cl)cccc2Cl)c1COc1ccc(-c2ccc3c(C(=O)O)c[nH]c3c2)cc1

# output
102 to 1000 nM
< 100 nM
